# target.under.test: T1, Transmembrane-4 L six family member-1 (TM4SF1) (human, UniProt P30408 1-202, limits assumed)
# T1 construct: also called hTM4SF1; human TM4SF1
# T1 sequence: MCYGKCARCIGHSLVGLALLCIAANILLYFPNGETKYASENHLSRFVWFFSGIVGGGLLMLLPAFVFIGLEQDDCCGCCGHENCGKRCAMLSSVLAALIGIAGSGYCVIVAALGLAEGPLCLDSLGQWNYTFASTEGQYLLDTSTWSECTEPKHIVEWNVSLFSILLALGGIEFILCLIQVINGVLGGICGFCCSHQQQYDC
# assay.info: antibody screen (method not described in this filing)

binder	binding result
monoclonal murine antibody AGX-A07 (antibody, V domains shown, The humanized A07 variants (A07-YTEC etc.) used in the ADC killing assays are different molecules and are not entered) VH: QIQLVQSGPELKKPGETVKISCKASGYTFTNYGVKWVKQAPGKDLKWMGWINTYTGNPIYAADFKGRFAFSLETSASTAFLQINNLKNEDTATYFCVRFQYGDYRYFDVWGAGTTVTVSS VL: QIILSQSPAILSASPGEKVTMTCRANSGISFINWYQQKPGSSPKPWIYGTANLASGVPARFGGSGSGTSYSLTISRVEAEDAATYYCQQWSSNPLTFGAGTKLELR	binds
monoclonal murine antibody AGX-A08 (antibody, V domains shown, Murine monoclonal antibody) VH: EVQLQQSGPELVKPGASVKLSCKASGYTVTSYVMHWVKQKPGQGLEWIGYINPYSDVTNCNEKFKGKATLTSDKTSSTAYMELSSLTSEDSAVYYCSSYGGGFAYWGQGTLVTVSA VL: DIQMTQSPASLSASVGEPVTITCRASKNIYTYLAWYHQKQGKSPQFLVYNARTLAGGVPSRLSGSGSVTQFSLNINTLHREDLGTYFCQHHYDTPYTFGGGTNLEIK	binds
monoclonal murine antibody AGX-A09 (antibody, V domains shown, Murine monoclonal antibody) VH: EVQLQQSGPELVKPGASVKMSCKASGYTFSSYVMHWVKQKPGQGLEWIGYINPYSDVTNYNEKFKGKATLTSDRSSNTAYMELSSLTSEDSAVYYCARNYFDWGRGTLVTVSA VL: DIQMTQSPASLSASVGETVTITCRASKNVYSYLAWFQQKQGKSPQLLVYNAKTLAEGVPSRFSGGGSGTQFSLKINSLQPADFGSYYCQHHYNIPFTFGSGTKLEIK	binds
